Test Details: Ultraviolet absorption and fluorescence emission in dichloromethane
Assay type: physicochemical
Measurement Context: 10 μM in dichloromethane; excitation 428 nm (1a), 407 nm (1b), 461 nm (1c), 430 nm (1d); slit 3 nm/3 nm (1d: 5 nm/3 nm)
Quantity Name: highest fluorescence intensity (emission wavelength) (nm)

CCN(CC)c1ccc2c(c1)oc(=O)c1cc3c(ccc4nc5c(cc43)c(=O)oc3cc(N(CC)CC)ccc35)nc12 [1d]	495
CCN(CC)c1ccc2c(c1)oc(=O)c1cc3ccc4ccccc4c3nc12 [1c]	546
CCN(CC)c1ccc2nc3c(cc2c1)c(=O)oc1ccccc13 [1a]	532
CCN(CC)c1ccc2nc3c(cc2c1)c(=O)oc1cc(N(CC)CC)ccc13 [1b]	562
